molecular target: TDP-43 full-length (oligomers) (Homo sapiens, UniProt Q13148 Q13148:1-414); test: intrinsic fluorescence titration (ex 280, em 350 nm), 1.5 uM protein, 30 mM Tris-HCl pH 8; residual binding may come from minor monomer population; conditions: chain copies: oligomer (stated); 1:1 stoichiometry of TDP-43 and ssDNA from fit
Sequence (Q13148 whole entry, one chain of several): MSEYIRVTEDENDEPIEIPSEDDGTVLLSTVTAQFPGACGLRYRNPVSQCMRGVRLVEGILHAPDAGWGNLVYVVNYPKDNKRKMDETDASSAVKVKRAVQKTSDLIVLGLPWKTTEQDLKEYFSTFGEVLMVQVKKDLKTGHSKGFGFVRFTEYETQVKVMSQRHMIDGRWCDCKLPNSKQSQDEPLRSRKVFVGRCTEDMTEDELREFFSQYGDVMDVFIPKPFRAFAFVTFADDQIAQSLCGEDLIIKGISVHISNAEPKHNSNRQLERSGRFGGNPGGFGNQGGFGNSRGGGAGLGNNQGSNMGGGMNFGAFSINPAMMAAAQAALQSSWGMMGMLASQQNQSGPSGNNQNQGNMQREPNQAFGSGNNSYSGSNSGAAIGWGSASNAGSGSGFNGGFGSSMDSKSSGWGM
ASSAY ENDPOINT: pKd
// scale note: pKd = -log10(conc_M); give the bare number

// Input: TGGGTCTCTCTG (ssDNA) [TAR DNA B-site] . Output its pKd only.
5.20

// Input: CTTTTTGCCTGT (ssDNA) [TAR DNA A-site] . Output its pKd only.
5.15
